The origin of these recorded values is patent US11753445B2.

- ASSAY REMARKS: Stability in mouse plasma, peptides 10 uM (Example 15)
- Format: in vitro ADME
- ASSAY SETUP: pooled mouse plasma; mouse plasma 37° C.; peptide 10 uM; 60 min; read-out: % Remaining at Each Time Point: 60 min
PROPERTY NAME: remaining at 1 h, 10 uM (%)

Please review the entries below; each comes with its answer.
- SUBSTANCE: "H-RWQEMQYIFYPR-OH [compound 211]"
  remaining at 1 h, 10 uM (%): 52.3
- SUBSTANCE: "H-RWQEENYIAEPR-OH [compound 261]"
  remaining at 1 h, 10 uM (%): 69.3
- SUBSTANCE: "H-MRWQEMNYIFYP-OH [compound 282]"
  remaining at 1 h, 10 uM (%): 1.92

[A] H-WQEMGYIFYPRKL-OH [compound 269]
[B] H-RWQEENYIFYPR-OH [compound 258]
[C] H-MRWQEEGYIFYPRKLR-OH [compound 172]
[D] H-QEMGYIFYPRKL-OH [compound 270]
Qu. Hello, I need these entries ordered by remaining at 1 h, 10 uM, highest reading first. Thanks! Order the labels as requested and give them as your answer.
Ans. B, A, C, D
(B: 36.3%, A: 17.2%, C: 6.43%, D: 0.59%)

[1] H-MRWQEMNYIFYPR-OH [compound 208]
[2] H-RWQEMNYIAEPR-OH [compound 251]
[3] H-MRWQEMGYIFYPRKLR-OH [compound 2]
Qu. Ascending by remaining at 1 h, 10 uM, please. Order the labels as requested and give them as your answer.
Ans. 3, 1, 2

[A] H-MRWQEMNYIFYP-NH2 [compound 287]
[B] H-WQEMNYIFYPR-OH [compound 284]
[C] H-RWQEMNYIFYPR-OH [compound 210]
[D] H-MRWQEMGYIFYPRKL-OH [compound 45]
Qu. Ascending by remaining at 1 h, 10 uM, please. Order the labels as requested and give them as your answer.
Ans. D, A, B, C

[A] H-RWQEMNYIFEPR-OH [compound 249]
[B] H-RWQEEQYIFYPR-OH [compound 263]
[C] H-RWQEMNYIFYP-OH [compound 283]
[D] H-WQEMNYIFYP-OH [compound 285]
Qu. Ascending by remaining at 1 h, 10 uM, please. Order the labels as requested and give them as your answer.
Ans. C, D, A, B
(C: 2.05%, D: 9.17%, A: 28.3%, B: 46.9%)

[1] H-RWQEEQYIFEPR-OH [compound 264]
[2] H-RWQEMQYIFEPR-OH [compound 254]
[3] H-ERWQEAGYIAYPR-OH [compound 241]
Qu. Hello, I need these entries ordered by remaining at 1 h, 10 uM, highest reading first. Thanks! Order the labels as requested and give them as your answer.
Ans. 3, 1, 2

###

- ASSAY REMARKS: Stability in mouse plasma, peptides 100 uM (Example 14)
- Format: in vitro ADME
- ASSAY SETUP: pooled mouse plasma; mouse plasma 37° C.; peptide 100 uM; 120 min; read-out: % Remaining at Each Time Point: 120 min
PROPERTY NAME: remaining at 2 h, 100 uM (%)

- SUBSTANCE: "H-MRWQEMGYIAYPRKLR-OH [compound 15]"
  PROPERTY NAME: "remaining at 2 h, 100 uM"
  READOUT UNIT: "%"
  ENDPOINT VALUE: 6.63
- SUBSTANCE: "H-MRWQEMGYIFYPAKLR-OH [compound 18]"
  PROPERTY NAME: "remaining at 2 h, 100 uM"
  READOUT UNIT: "%"
  ENDPOINT VALUE: 9.02
- SUBSTANCE: "H-MRWQEMGYIFYPRK(Ac)LR-OH [compound 69]"
  PROPERTY NAME: "remaining at 2 h, 100 uM"
  READOUT UNIT: "%"
  ENDPOINT VALUE: 5.96
- SUBSTANCE: "H-MRWQEMGYIFYPRKLR-OH [compound 2]"
  PROPERTY NAME: "remaining at 2 h, 100 uM"
  READOUT UNIT: "%"
  ENDPOINT VALUE: 4.78

[1] H-MRWQEMGYIFYPRKLA-OH [compound 21]
[2] H-WQEMGYIFYPRKLR-OH [compound 39]
Qu. Input pair: 1 , 2 . Output: entry with lower remaining at 2 h, 100 uM. Answer with the label corresponding to your selection.
Ans. 1
(1: 6.41%, 2: 24%)

###

- ASSAY REMARKS: Stability in mouse plasma, peptides 100 uM (Example 14)
- Type: in vitro ADME
- ASSAY SETUP: pooled mouse plasma; mouse plasma 37° C.; peptide 100 uM; 15 min; read-out: % Remaining at Each Time Point: 15 min
PROPERTY NAME: remaining at 0.25 h, 100 uM (%)

- SUBSTANCE: "H-RWQEMNYIFYPR-OH [compound 210]"
  READOUT UNIT: "%"
  remaining at 0.25 h, 100 uM: 56.2

[A] H-MRWQEMGYIFYPRK-OH [compound 46]
[B] H-MRAQEMGYIFYPRKLR-OH [compound 8]
[C] H-MRWQEMGYIAYPRKLR-OH [compound 15]
[D] H-MRWQEMGYIFYPRNLR-OH [compound 213]
Qu. Ascending by remaining at 0.25 h, 100 uM, please. Order the labels as requested and give them as your answer.
Ans. B, C, A, D

###

- ASSAY REMARKS: Stability in mouse plasma, peptides 10 uM (Example 15)
- Type: in vitro ADME
- ASSAY SETUP: mouse plasma 37° C.; peptide 10 uM; 0 min
PROPERTY NAME: % Remaining at Each Time Point: 0 min (%)

- SUBSTANCE: "H-RWQEMNYIFYP-OH [compound 283]"
  ENDPOINT VALUE: 100
- SUBSTANCE: "H-MRWQEMGYIFYPRKLR-OH [compound 2]"
  ENDPOINT VALUE: 100
- SUBSTANCE: "H-MRWQEMNYIFYPR-OH [compound 208]"
  ENDPOINT VALUE: 100
- SUBSTANCE: "H-RWQEMQYIFEPR-OH [compound 254]"
  ENDPOINT VALUE: 100
- SUBSTANCE: "H-WQEMNYIFYPR-OH [compound 284]"
  ENDPOINT VALUE: 100
- SUBSTANCE: "H-RWQEEQYIFEPR-OH [compound 264]"
  ENDPOINT VALUE: 100
- SUBSTANCE: "H-MRWQEMGYIFYPRKL-OH [compound 45]"
  ENDPOINT VALUE: 100
- SUBSTANCE: "H-RWQEENYIAEPR-OH [compound 261]"
  ENDPOINT VALUE: 100
- SUBSTANCE: "H-MRWQEEGYIFYPRKLR-OH [compound 172]"
  ENDPOINT VALUE: 100
- SUBSTANCE: "H-RWQEENYIFEPR-OH [compound 259]"
  ENDPOINT VALUE: 100
- SUBSTANCE: "H-RWQEEQYIAYPR-OH [compound 265]"
  ENDPOINT VALUE: 100
- SUBSTANCE: "H-RWQEMQYIFYPR-OH [compound 211]"
  ENDPOINT VALUE: 100
- SUBSTANCE: "H-RWQEEQYIAEPR-OH [compound 266]"
  ENDPOINT VALUE: 100
- SUBSTANCE: "Ac-MRWQEMNYIFYPR-OH [compound 286]"
  ENDPOINT VALUE: 100
- SUBSTANCE: "H-MRWQEMNYIFYP-OH [compound 282]"
  ENDPOINT VALUE: 100
- SUBSTANCE: "H-RWQEMNYIAEPR-OH [compound 251]"
  ENDPOINT VALUE: 100
- SUBSTANCE: "H-MRWQEMNYIFYP-NH2 [compound 287]"
  ENDPOINT VALUE: 100

###

- ASSAY REMARKS: Stability in mouse plasma, peptides 10 uM (Example 15)
- Format: in vitro ADME
- ASSAY SETUP: pooled mouse plasma; mouse plasma 37° C.; peptide 10 uM; 15 min; read-out: % Remaining at Each Time Point: 15 min
PROPERTY NAME: remaining at 0.25 h, 10 uM (%)

- SUBSTANCE: "H-MRWQEMGYIFYPRKL-OH [compound 45]"
  ENDPOINT VALUE: 66.5
- SUBSTANCE: "H-RWQEEQYIFEPR-OH [compound 264]"
  ENDPOINT VALUE: 76.7
- SUBSTANCE: "Ac-MRWQEMNYIFYPR-OH [compound 286]"
  ENDPOINT VALUE: 88.4
- SUBSTANCE: "H-RWQEENYIAEPR-OH [compound 261]"
  ENDPOINT VALUE: 85
- SUBSTANCE: "H-MRWQEEGYIFYPRKLR-OH [compound 172]"
  ENDPOINT VALUE: 59.4
- SUBSTANCE: "H-MRWQEMGYIFYARKLR-OH [compound 17]"
  ENDPOINT VALUE: 46
- SUBSTANCE: "H-RWQEMQYIFYPR-OH [compound 211]"
  ENDPOINT VALUE: 85.2
- SUBSTANCE: "H-RWQEEQYIFYPR-OH [compound 263]"
  ENDPOINT VALUE: 80.7
- SUBSTANCE: "H-RWQEEQYIAYPR-OH [compound 265]"
  ENDPOINT VALUE: 83.3
- SUBSTANCE: "H-WQEMNYIFYPR-OH [compound 284]"
  ENDPOINT VALUE: 75.3
- SUBSTANCE: "H-RWQEMQYIAYPR-OH [compound 255]"
  ENDPOINT VALUE: 78.3
- SUBSTANCE: "H-WQEMGYIFYPRKL-OH [compound 269]"
  ENDPOINT VALUE: 70
- SUBSTANCE: "H-RWQEMNYIFEPR-OH [compound 249]"
  ENDPOINT VALUE: 46.7
- SUBSTANCE: "H-MRWQEMNYIFYP-NH2 [compound 287]"
  ENDPOINT VALUE: 64
- SUBSTANCE: "H-RWQEENYIFEPR-OH [compound 259]"
  ENDPOINT VALUE: 82.2
- SUBSTANCE: "H-RWQEMQYIFEPR-OH [compound 254]"
  ENDPOINT VALUE: 52.4
- SUBSTANCE: "H-RWQEMNYIAYPR-OH [compound 250]"
  ENDPOINT VALUE: 63.2
